# Assay text: CHI Log D procedure
# Format: physicochemical
# Measurement parameters: pH 7.4, CHI Log D
Measured chromatographic logD, listed per entry for reference.
Lab note: record the figure alone, no unit after it.

Example entries and their recorded answers appear below.
Compound	chromatographic logD
CC(=O)N1CCC[C@]12CC=CCCCC1(CCCC=CCCCCCC[C@@](C)(C(=O)N[C@@H](Cc3ccccc3)C(=O)N[C@@H](Cc3csc4ccccc34)C(=O)N[C@@H](Cc3c[nH]cn3)C(N)=O)NC(=O)[C@H](CCC(N)=O)NC(=O)[C@H](Cc3ccccc3)NC(=O)[C@H](C)NC(=O)[C@H](C)NC(=O)[C@H](CCC(=O)O)NC(=O)[C@H](CC(=O)O)NC1=O)NC(=O)[C@H](CC(C)C)NC(=O)[C@H](CC(=O)O)NC2=O (some centres unmarked)	2.41
CC[C@H](C)[C@H](NC(=O)[C@H](CC(=O)O)NC(C)=O)C(=O)N[C@]1(C)CCN(C)C(=O)OCC=CCCCCC[C@@](C)(C(=O)N[C@@H](Cc2ccccc2)C(=O)N[C@@H](Cc2c[nH]c3ccccc23)C(N)=O)NC(=O)[C@H](CCC(N)=O)NC(=O)[C@H](Cc2ccccc2)NC(=O)[C@H](C)NC(=O)[C@H](C)NC(=O)[C@H](CC(=O)O)NC(=O)[C@H](CC(=O)O)NC1=O	1.35
CC[C@H](NC(=O)[C@H](Cc1csc2ccccc12)NC(=O)[C@H](Cc1ccccc1)NC(=O)[C@]1(C)CCCCCCC=CCCCC2(CCCC=CC[C@]3(CCCN3C(C)=O)C(=O)N[C@@H](CC(=O)O)C(=O)N[C@@H](C)C(=O)N2)C(=O)N[C@@H](CC(=O)O)C(=O)N[C@@H](CCC(=O)O)C(=O)N[C@@H](C)C(=O)N[C@@H](C)C(=O)N[C@@H](Cc2ccccc2)C(=O)N[C@@H](CCC(N)=O)C(=O)N1)C(N)=O (some centres unmarked)	2.16

Which chromatographic logD value is on record for CC(=O)N1CCC[C@]12CC=CCCCC1(CCCC=CCCCCCC[C@@](C)(C(=O)N[C@@H](Cc3ccccc3)C(=O)N[C@@H](Cc3c[nH]c4ccccc34)C(=O)N[C@@H](CCC(N)=O)C(N)=O)NC(=O)[C@H](C(C)C)NC(=O)[C@H](Cc3ccccc3)NC(=O)[C@H](C)NC(=O)[C@H](C)NC(=O)[C@H](CCc3ccccc3)NC(=O)[C@H](CC(=O)O)NC1=O)NC(=O)[C@H](C)NC(=O)[C@H](CC(=O)O)NC2=O (some centres unmarked) ? 2.98

Which chromatographic logD value is on record for CC[C@H](C)[C@@H]1NC(=O)[C@H](CC(=O)O)NC(=O)[C@]2(CC=CCCCC3(CCCC=CCCCCCC[C@@](C)(C(=O)N[C@@H](Cc4ccccc4)C(=O)N[C@@H](Cc4csc5ccccc45)C(=O)N[C@@H](CCC(N)=O)C(N)=O)NC(=O)[C@H](CC(N)=O)NC(=O)[C@H](Cc4ccccc4)NC(=O)[C@H](C)NC(=O)[C@H](C)NC(=O)[C@H](CCC(=O)O)NC(=O)[C@H](CC(=O)O)NC3=O)NC1=O)CCCN2C(C)=O (some centres unmarked) ? 2.39

###

# Assay system: beta-catenin/TCF4 engagement (Homo sapiens, UniProt P35222)
# Construct: expressed in transfected cells; host or cells: HEK293
# Sequence (P35222 whole entry): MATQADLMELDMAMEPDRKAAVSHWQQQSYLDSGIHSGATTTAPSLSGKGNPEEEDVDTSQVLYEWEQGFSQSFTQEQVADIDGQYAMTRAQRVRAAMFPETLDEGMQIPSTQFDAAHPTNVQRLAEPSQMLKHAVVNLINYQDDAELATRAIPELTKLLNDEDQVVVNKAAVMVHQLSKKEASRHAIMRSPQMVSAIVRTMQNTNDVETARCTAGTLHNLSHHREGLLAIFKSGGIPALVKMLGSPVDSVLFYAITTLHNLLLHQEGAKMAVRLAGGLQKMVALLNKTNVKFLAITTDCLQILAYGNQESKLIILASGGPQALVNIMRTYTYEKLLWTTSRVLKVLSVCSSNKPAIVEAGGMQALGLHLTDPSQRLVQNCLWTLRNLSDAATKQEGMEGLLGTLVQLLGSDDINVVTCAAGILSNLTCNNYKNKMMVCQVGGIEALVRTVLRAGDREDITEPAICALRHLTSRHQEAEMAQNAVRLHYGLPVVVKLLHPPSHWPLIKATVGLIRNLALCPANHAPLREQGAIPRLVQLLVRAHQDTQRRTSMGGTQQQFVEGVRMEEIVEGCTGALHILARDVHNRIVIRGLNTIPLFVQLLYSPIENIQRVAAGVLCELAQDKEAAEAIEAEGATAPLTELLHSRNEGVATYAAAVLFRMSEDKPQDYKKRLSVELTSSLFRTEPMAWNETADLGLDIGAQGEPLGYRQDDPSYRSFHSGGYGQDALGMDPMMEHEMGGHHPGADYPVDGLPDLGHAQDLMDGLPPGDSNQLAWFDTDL
# Assay text: Nano-BRET target engagement assay (B-cat-Halo & TCF4-Luc in HEK293 cells)
# Type: cell-based
# Measurement parameters: Peptide + ST-Protein (SAINT-Protein lipid); read-out: Nano-BRET Abs IC50
Measured IC50, listed per entry for reference.
Write it as a number; the unit nM goes unstated.

Which IC50 value is on record for CC(=O)N1CCC[C@]12CC=CCCCC1(CCCC=CCCCOC(=O)N3CC[C@@](C(=O)N[C@@H](Cc4ccsc4)C(=O)N[C@@H](Cc4csc5ccccc45)C(=O)N[C@@H](CCC(N)=O)C(N)=O)(C3)NC(=O)[C@H](CC(N)=O)NC(=O)[C@H](Cc3ccccc3)NC(=O)[C@H](C)NC(=O)[C@H](C)NC(=O)[C@H](CN(CC(=O)O)CC(F)(F)F)NC(=O)[C@H](CC(=O)O)NC1=O)NC(=O)[C@H](CC(C)(C)C)NC(=O)[C@H](CC(=O)O)NC2=O (single isomer, unassigned) [I-762] ? 700

Which IC50 value is on record for CC(=O)N1CCC[C@]12CC=CCCCC1(CCCC=CCCCOC(=O)N3CC[C@@](C(=O)N[C@@H](Cc4ccccc4Cl)C(=O)N[C@@H](Cc4csc5ccccc45)C(=O)N[C@@H](CCC(N)=O)C(N)=O)(C3)NC(=O)[C@H]([C@@H](C)O)NC(=O)[C@H](Cc3ccccc3)NC(=O)[C@H](C)NC(=O)[C@H](C)NC(=O)[C@H](CN(CC(=O)O)CC(F)(F)F)NC(=O)[C@H](CC(=O)O)NC1=O)NC(=O)[C@H](CC(C)(C)C)NC(=O)[C@H](CC(=O)O)NC2=O (stereo partly shown) [I-922] ? 1000

Which IC50 value is on record for CC(=O)N1CCC[C@]12CC=CCCCC1(CCCC=CCCCOC(=O)N3CC[C@@](C(=O)N[C@@H](Cc4ccccc4Cl)C(=O)N[C@@H](Cc4csc5ccccc45)C(=O)N[C@@H](CCO)C(N)=O)(C3)NC(=O)[C@H](CCO)NC(=O)[C@H](Cc3ccccc3)NC(=O)[C@H](C)NC(=O)[C@H](C)NC(=O)[C@H](CN(CC(=O)O)CC(F)(F)F)NC(=O)[C@H](CC(=O)O)NC1=O)NC(=O)[C@H](CC(C)(C)C)NC(=O)[C@H](CC(=O)O)NC2=O (stereo partly shown) [I-993] ? 900

Which IC50 value is on record for CC(=O)N1CCC[C@]12CC=CCCCC1(CCCC=CCCCOC(=O)N3CC[C@@](C(=O)N[C@@H](Cc4ccsc4)C(=O)N[C@@H](Cc4csc5ccccc45)C(=O)N[C@@H](CCC(N)=O)C(N)=O)(C3)NC(=O)[C@H](CC(C)C)NC(=O)[C@H](Cc3ccccc3)NC(=O)[C@H](C)NC(=O)[C@H](C)NC(=O)[C@H](CN(CC(=O)O)CC(F)(F)F)NC(=O)[C@H](CC(=O)O)NC1=O)NC(=O)[C@H](CC(C)(C)C)NC(=O)[C@H](CC(=O)O)NC2=O (stereo partly shown) [I-849] ? 700
